Molecular target: Orexin/Hypocretin receptor type 1 (Homo sapiens, UniProt O43613);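 further: antagonism measured against Orexin-A challenge at about its EC80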
Sequence (O43613 whole entry): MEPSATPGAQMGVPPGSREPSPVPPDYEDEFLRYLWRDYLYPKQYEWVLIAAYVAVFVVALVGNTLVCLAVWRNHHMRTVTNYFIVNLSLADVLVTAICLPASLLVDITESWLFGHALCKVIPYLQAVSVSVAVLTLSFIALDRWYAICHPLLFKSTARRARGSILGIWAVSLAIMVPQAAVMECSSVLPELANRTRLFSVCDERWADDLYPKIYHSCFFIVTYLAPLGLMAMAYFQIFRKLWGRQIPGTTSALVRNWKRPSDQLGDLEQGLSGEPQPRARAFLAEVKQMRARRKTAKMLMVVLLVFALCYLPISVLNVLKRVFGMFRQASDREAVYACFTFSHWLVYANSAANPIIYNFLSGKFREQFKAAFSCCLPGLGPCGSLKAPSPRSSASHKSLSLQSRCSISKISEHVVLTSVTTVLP
Test: Homogeneous Time Resolved Fluorescence (HTRF)-based cell-based high throughput dose response assay for antagonists of the orexin 1 receptor (OX1R; HCRTR1). [Related pubchem assays (depositor defined):AID434989, AID435008, AID463079, AID485270, AID492963, AID492964, AID492965, AID493232, AID504717, AID504718]
Assay type: functional
The source made the active and inactive calls.
metric name: IC50

compound	study target	result
Cc1noc(C)c1S(=O)(=O)Nc1ccc(O)c2c(=O)cc(-c3ccccc3Cl)oc12	Orexin/Hypocretin receptor type 1 (Homo sapiens, UniProt O43613)	0.151 µM (active)
CCn1c2ccccc2c2nc3ccccc3nc21	Orexin/Hypocretin receptor type 1 (Homo sapiens, UniProt O43613)	0.914 µM (active)

IC50 recorded for this compound, CCN(C(=O)CO/N=C/c1ccc(OC)cc1OC)c1c(N)n(Cc2ccccc2)c(=O)[nH]c1=O , is 0.317 µM (active)

Entry CCN(CC)c1ccc(/C=N/NC(=O)c2ccco2)c(O)c1 — recorded IC50 = 2.83 µM (active)

IC50 reading for CC(NS(=O)(=O)c1ccc(OCC(=O)Nc2cccc([N+](=O)[O-])c2)cc1)c1ccccc1 (stereo unspecified) : 0.688 µM (active)

IC50 reported for this compound O=c1c2ccccc2oc2cc(-c3ccc4[nH]ccc4c3)ccc12 : 2.71 µM (active)

###

Assay: viability of PTEN-deleted HCT116 cells – cell-based, HCT116 PTEN knockout, dose response (AID 1047);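 further: HCT116 colon tumor cells with PTEN knocked out; cells exposed to compound for 60 hours before readout; potency for loss of cell viability measured by luminescence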
Assay type: functional
Activity calls are given as the source filed them.
Reported EC50 values follow for various molecules

molecule	EC50
O=C(/C=C/c1cccc([N+](=O)[O-])c1)c1cccs1	14.3 µM (active)
CCCCNS(=O)(=O)c1ccc(NC(=O)C(Sc2ccccc2)c2ccccc2)cc1 (stereo not drawn)	14 µM (active)
CCOC(=O)c1[nH]c2c(c1-c1ccccc1)C(=O)CC(c1ccc(OC)c(OC)c1)C2 (stereo not drawn)	54 µM (active)
Cc1ccc(Nc2nc(N)nc(CN3CCN(Cc4ccc5c(c4)OCO5)CC3)n2)cc1Cl	18 µM (active)
CCCCn1c(SCC(=O)Nc2cc(NC(=O)c3ccco3)ccc2C)nc2ccccc2c1=O	14.4 µM (active)
CC(NS(=O)(=O)c1ccc(OCC(=O)Nc2cccc([N+](=O)[O-])c2)cc1)c1ccccc1 (stereo not drawn)	18.4 µM (active)
COCCNc1nnc(SC(C)C(=O)Nc2ccc(-c3nc4ccc(C)cc4s3)cc2)s1 (stereo not drawn)	30 µM (active)

Let's switch to this molecule now.
Please fill in: EC50 reported for COc1ccc(-c2cc(=O)oc3cc(OCC(=O)c4cccc([N+](=O)[O-])c4)ccc23)cc1 = 24.9 µM (active)

###

Target: DNA repair protein RAD52 homolog (Homo sapiens, UniProt P43351)
Sequence (P43351 whole entry): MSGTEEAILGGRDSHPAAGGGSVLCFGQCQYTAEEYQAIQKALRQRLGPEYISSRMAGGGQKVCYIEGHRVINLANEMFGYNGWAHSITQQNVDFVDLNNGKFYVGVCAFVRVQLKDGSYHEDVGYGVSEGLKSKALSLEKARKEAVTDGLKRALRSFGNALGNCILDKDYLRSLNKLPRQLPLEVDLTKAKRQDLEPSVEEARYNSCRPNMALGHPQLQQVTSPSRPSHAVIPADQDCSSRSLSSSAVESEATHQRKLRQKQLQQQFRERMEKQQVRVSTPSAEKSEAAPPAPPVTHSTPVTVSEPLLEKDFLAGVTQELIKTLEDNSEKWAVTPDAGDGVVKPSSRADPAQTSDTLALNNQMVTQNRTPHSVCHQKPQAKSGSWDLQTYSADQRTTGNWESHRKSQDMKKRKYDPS
Assay type: functional, biochemical
The source made the active and inactive calls.
Below, each of the molecules is paired with its reported AC50 value.

// worked examples, AC50 included
smiles structure	study target	metric name	result
O=C(C[n+]1ccc2ccccc2c1)c1ccc2ccc3ccccc3c2c1	DNA repair protein RAD52 homolog (Homo sapiens, UniProt P43351)	AC50	4.04 µM (active)
CCn1cc(C(=O)NN)c(=O)c2cc(F)c(N3CCN(C)CC3)cc21	DNA repair protein RAD52 homolog (Homo sapiens, UniProt P43351)	AC50	15.7 µM (active)
CCOc1ccc(Nc2c3ccccc3nc3ccccc23)cc1	DNA repair protein RAD52 homolog (Homo sapiens, UniProt P43351)	AC50	1.57 µM (active)

Reported AC50 for CN1CCN(CC(=O)Nc2nc(-c3c[nH]c4ccccc34)cs2)CC1 was 11.6 µM (active)

AC50 recorded for this molecule, CCOC(=O)c1c(CNc2ccncc2)n(C)c2cc(Br)c(O)cc12 , is 15.6 µM (active)

Noted for COc1ccc(N2CCc3c(C)nc4c(OC)cccc4c32)cc1 : its AC50 reads 12.3 µM (active)

###

Experiment: luciferase reporter signal suppression in cells – H4 neuroglioma cells, luminescence, dose response (AID 1990)
Type: functional, cell-based
The source made the active and inactive calls.
metric name: EC50

molecule	EC50
N=c1ccn(CC(=O)c2ccc(-c3ccccc3)cc2)cc1	9.17 µM (active)

Per the records, this molecule ( Nc1nc(Cl)nc2c1ncn2C1CC(O)C(CO)O1 (stereo not given) ) has EC50 equal to 0.544 µM (active)

Query Cc1ccc2nc(-c3ccccc3)cn2c1 yields EC50 of 1.32 µM (active)

Summary for this molecule, COc1ccccc1C(=O)NNC(=S)NC(=O)c1cccs1 : EC50 is > 120 µM (not active)

Lab note: CC(C)c1ccc(-c2c(C#N)c(N)nc3c2CCCCC3)cc1 gave EC50 of > 120 µM (not active)

###

Target: Peroxisome proliferator-activated receptor gamma/Nuclear receptor coactivator 3 (Homo sapiens);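 further: agonist potency for raising coactivator recruitment to the receptor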
Sequence (P37231 whole entry): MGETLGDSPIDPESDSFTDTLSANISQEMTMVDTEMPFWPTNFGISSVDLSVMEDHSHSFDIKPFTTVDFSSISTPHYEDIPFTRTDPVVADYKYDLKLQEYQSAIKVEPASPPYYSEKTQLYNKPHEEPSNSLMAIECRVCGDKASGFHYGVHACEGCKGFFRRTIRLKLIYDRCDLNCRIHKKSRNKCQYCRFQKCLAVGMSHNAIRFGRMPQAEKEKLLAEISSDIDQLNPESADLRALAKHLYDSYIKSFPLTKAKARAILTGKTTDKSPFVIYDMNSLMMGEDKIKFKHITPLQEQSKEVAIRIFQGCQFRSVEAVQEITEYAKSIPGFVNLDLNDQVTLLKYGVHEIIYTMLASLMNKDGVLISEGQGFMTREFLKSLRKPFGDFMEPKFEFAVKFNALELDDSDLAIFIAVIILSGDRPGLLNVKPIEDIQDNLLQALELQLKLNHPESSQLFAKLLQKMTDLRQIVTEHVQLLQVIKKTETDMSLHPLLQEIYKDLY
Sequence (Q9Y6Q9 whole entry, further chain): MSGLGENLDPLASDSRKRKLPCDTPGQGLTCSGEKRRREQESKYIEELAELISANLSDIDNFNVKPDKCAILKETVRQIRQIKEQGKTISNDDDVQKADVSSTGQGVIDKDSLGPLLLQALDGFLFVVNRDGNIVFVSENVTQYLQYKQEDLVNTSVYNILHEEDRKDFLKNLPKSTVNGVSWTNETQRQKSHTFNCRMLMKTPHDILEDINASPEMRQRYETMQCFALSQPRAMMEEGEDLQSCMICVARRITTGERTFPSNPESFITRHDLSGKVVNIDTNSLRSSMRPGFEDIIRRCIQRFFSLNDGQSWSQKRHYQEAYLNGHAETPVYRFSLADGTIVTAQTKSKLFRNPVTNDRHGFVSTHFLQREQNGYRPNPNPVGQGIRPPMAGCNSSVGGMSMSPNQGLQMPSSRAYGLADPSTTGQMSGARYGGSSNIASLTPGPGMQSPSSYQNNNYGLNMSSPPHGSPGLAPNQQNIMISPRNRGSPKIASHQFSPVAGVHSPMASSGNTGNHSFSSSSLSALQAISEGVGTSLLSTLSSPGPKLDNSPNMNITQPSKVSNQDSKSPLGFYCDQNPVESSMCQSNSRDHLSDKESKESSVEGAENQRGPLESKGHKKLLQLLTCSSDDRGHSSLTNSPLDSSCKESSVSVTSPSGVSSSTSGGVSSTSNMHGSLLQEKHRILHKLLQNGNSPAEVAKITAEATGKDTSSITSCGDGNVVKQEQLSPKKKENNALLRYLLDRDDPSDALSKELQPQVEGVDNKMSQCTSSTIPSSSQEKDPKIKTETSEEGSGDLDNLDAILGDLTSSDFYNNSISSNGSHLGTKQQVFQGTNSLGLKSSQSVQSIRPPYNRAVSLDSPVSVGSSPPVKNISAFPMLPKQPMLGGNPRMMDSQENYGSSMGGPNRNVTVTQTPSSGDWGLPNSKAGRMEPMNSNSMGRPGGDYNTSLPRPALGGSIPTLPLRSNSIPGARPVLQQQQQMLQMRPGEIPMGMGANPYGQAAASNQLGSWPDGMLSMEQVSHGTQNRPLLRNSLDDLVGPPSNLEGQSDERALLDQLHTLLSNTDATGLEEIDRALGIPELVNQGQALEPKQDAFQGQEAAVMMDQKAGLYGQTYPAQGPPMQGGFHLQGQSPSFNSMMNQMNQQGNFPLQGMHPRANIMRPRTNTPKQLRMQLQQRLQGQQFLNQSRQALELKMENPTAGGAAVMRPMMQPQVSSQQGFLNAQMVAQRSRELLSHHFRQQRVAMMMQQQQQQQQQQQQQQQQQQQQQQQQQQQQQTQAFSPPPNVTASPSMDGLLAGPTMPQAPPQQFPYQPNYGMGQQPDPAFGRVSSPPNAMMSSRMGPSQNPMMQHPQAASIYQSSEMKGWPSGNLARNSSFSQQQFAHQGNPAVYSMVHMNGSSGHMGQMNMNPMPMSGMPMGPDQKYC
Type: functional
metric name: EC50

Illustrative cases are given below, each with its answer.
molecule	result
COc1cc(C2CC(=O)N3CN(Cc4ccccc4)CSC3=C2C#N)ccc1OCc1ccccc1 (centres undefined)	> 79.4 µM (not active)
N#Cc1cc2c(nc1SCc1ccccc1)CCC2	56.6 µM (not active)
CCOC(=O)C1=NN(c2cccc(Cl)c2)C2=NC(C)=C(C(=O)OC)C(c3cccs3)N12 (centres undefined)	> 79.4 µM (not active)

Okay, next one:
Reported EC50 of O=C(CSc1cccc2cccnc12)N/N=C/c1cccnc1 : > 79.4 µM (not active)

###

Assay: Luminescence Cell-Based Dose Retest to Confirm Inhibitors of Cancer Stem Cells. [Related pubchem assays (depositor defined):AID2717, AID2721]
Type: functional
Conditions: Homo sapiens
Activity calls are given as the source filed them.
# key: entry, value: AC50

Some entries whose results are on file:
compound	AC50
CCOC(=O)c1c(CSc2ccccc2)n(C)c2cc(Br)c(OCC(O)CNC(CO)(CO)CO)cc12 (stereo not given)	1460 nM (active)
ClC1=C(Cl)C2(Cl)C3C(Cl)C=CC3C1(Cl)C2(Cl)Cl (stereo not given)	6100 nM (active)
Cc1cccc(Nc2nc(-c3ccc(O)cc3O)cs2)n1	6880 nM (active)
O=c1c2ccccc2oc2cc(-c3ccc4[nH]ccc4c3)ccc12	255 nM (active)

AC50 reported for this compound Cc1ccc(N2C(=O)C3C4C=CC(CC4)C3C2=O)cc1Br (stereo not given) : 678 nM (active)

###

Assay: Luminescence Cell-Based Dose Response HTS to Identify Inhibitors of 5'UTR Stem-Loop Driven Prion Protein mRNA Translation in H4 Neuroglioblastoma Cells. [Related pubchem assays: 1827 (Project Summary), 1813 (Primary HTS)]
Type: functional
The source made the active and inactive calls.
metric name: EC50

compound	metric name	result
O=[N+]([O-])c1ccc(N2CCCC(C(F)(F)F)C2)c2ccncc12 (centres undefined)	EC50	> 120 µM (not active)
CC(C)c1nc2sc3c(NCc4ccco4)ncnc3c2c2c1COC(C)(C)C2	EC50	> 120 µM (not active)
Cn1c(NCc2ccccc2)nc2c1c(=O)n(Cc1ccc(Br)cc1)c(=O)n2C	EC50	18 µM (active)

EC50 reported for this compound CCCCNS(=O)(=O)c1ccc(NC(=O)C(Sc2ccccc2)c2ccccc2)cc1 (centres undefined) : > 120 µM (not active)

###

Assay: alpha-synuclein stem-loop luciferase translation blockers – H4 neuroglioma cells, luminescence, confirmation (AID 1988)
Format: functional, cell-based
The source made the active and inactive calls.
Entries and their EC50 values follow.

Entry under test: O=C(COc1ccc(C(=O)c2ccccc2)cc1)NCc1ccc(F)cc1 . Its EC50 was 7.25 µM (active)

// sample Cc1cc(C)c(NC(=O)CSc2nc(COc3ccccc3)nc3ccccc23)c(C)c1 , its EC50 was > 120 µM (not active)

Query COc1ccccc1C(=O)NNC(=S)NC(=O)c1cccs1 yields EC50 of > 120 µM (not active)

In plain terms, O=C(NCCc1ccccc1)c1ccc2nccnc2c1 has a documented EC50 of 9.37 µM (active)

In plain terms, CC(C)c1ccc(-c2c(C#N)c(N)nc3c2CCCCC3)cc1 has a documented EC50 of 41.9 µM (active)

molecule Cn1c(NCc2ccccc2)nc2c1c(=O)n(Cc1ccc(Br)cc1)c(=O)n2C , EC50 observed: 12.4 µM (active)

###

The next entries give measured AC50 for UniProt P10635.
Sequence (P10635 whole entry): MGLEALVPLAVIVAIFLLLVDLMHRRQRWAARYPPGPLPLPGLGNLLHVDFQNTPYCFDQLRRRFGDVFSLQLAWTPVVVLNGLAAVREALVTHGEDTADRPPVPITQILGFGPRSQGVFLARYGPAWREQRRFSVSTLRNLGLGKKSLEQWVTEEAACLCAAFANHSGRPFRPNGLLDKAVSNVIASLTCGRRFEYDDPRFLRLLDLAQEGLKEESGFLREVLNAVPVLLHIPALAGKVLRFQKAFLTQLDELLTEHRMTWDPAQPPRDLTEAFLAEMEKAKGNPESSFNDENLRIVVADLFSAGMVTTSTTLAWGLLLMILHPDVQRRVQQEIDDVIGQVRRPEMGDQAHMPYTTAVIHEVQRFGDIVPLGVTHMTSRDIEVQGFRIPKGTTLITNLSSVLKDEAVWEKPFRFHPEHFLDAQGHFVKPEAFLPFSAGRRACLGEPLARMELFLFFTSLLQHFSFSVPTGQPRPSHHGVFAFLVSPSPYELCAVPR

smiles structure	AC50
CCN(CCO)C[C@H]1CCC[C@H]2CCCC[C@@H]21	6.31 µM (inconclusive)
O[C@@H](c1cc(C(F)(F)F)nc2c(Cl)cc(Cl)cc12)[C@@H]1CCCCN1	3.16 µM (inconclusive)

AC50 in this record for CCC/N=C/c1c(CCC)nn(-c2nc3ccccc3s2)c1O : 25.1 µM (inconclusive)

###

IC50 values by entry
Biological target: Induced myeloid leukemia cell differentiation protein Mcl-1 (Homo sapiens, UniProt Q07820)
Sequence (Q07820 whole entry): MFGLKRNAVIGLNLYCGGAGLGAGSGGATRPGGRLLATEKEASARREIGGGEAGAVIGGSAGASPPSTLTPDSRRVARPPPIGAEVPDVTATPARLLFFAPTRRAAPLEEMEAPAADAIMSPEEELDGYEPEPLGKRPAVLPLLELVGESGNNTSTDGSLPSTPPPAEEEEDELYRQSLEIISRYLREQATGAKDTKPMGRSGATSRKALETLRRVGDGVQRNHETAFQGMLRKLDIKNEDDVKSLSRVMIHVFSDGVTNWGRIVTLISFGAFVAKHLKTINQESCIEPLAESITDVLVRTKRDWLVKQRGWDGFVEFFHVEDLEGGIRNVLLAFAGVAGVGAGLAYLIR
Assay type: functional
Active and inactive are the calls of the source.

compound	IC50
O=[N+]([O-])c1ccc(/C=N/NC(=S)Nc2ccc(Cl)cc2Cl)s1	4670 nM (active)
O=C1CSC(=S)N1/N=C/c1ccc(O)c(O)c1O	1170 nM (active)
O=C1OC(c2cccs2)=N/C1=C/c1ccc(-c2cccc(C(=O)O)c2)o1	1530 nM (not active)

# compound CCN(CCO)c1nc(SC)nc2c1sc1nc(-c3ccco3)c3c(c12)CCC3 ; its IC50 = 1850 nM (active)

For COc1ccccc1CNC(=O)COC(=O)c1cc(-c2ccco2)nc2ccccc12 the compound record lists IC50 as 2040 nM (active)

Kindly note the recorded IC50 for Cn1c(=O)c(C(=O)COC(=O)c2cc(-c3ccco3)nc3ccccc23)c(N)n(CC2CC2)c1=O , which is 1990 nM (active)

For reference, reported IC50 for CC1=C(C#N)C(=O)NC(=O)/C1=C\c1ccc(-c2cc(C)c(C)cc2[N+](=O)[O-])o1 stands at 2870 nM (active)

// IC50 lookup, compound = CC(=O)c1sc2nc(-c3cccs3)ccc2c1N , result: 7080 nM (not active)

Memo: COc1ccc(-c2csc(NC(=O)CSc3nc(C)nc4sc(C(=O)O)c(C)c34)n2)cc1 , reported IC50: 7810 nM (active)

The measured IC50 associated with C/C(=N\Nc1cccc(C(=O)O)c1)c1ccc2c(c1)Nc1ccccc1S2 reads 431 nM (active)

GET /value?item= Cc1[nH]n(-c2ncc(-c3ccccc3)s2)c(=O)c1C(c1ccc(Br)cc1)C(C#N)C#N (stereo unspecified) &field=IC50 returns 4670 nM (active)

Hey, just so you know, these numbers are from ChEMBL document CHEMBL1201862.
